Molecular target: T1, 285bZIP E287G (human, UniProt P16220-1 285-339, C300S;C310S;C337S;E287G)
T1 sequence: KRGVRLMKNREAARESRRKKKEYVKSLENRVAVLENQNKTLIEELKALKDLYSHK
Assay: stopped-flow fluorescence (koff/kon); 10 mM Mg2+; 10 mM MES pH 6.5, 150 mM NaCl, 10 mM MgCl2, 0.05% Tween-20, 25 C; NMR: 10 mM Tris-d11, 150 mM NaCl, 10 mM MgCl2, 1 mM NaN3, 5% D2O (NOE at 25 C)
Conditions: protein: recombinant; tags: extra N-terminal Gly; chain copies: 2; label: 5' Alexa Fluor 488; hairpin (self-annealing, 11 bp stem, CCCC loop)
observable: Kd
Answer format: value, then unit.

The binder identified as CCTGACGTCAGCCCCCTGACGTCAGG (structured_DNA) [AlexaFluor488-CREh] registered its Kd at 4.6 nM
